- assayed.system: T1, alpha-synuclein plaque particles (Homo sapiens, UniProt P37840)
- T1 construct: 140 amino acids polypeptide
- measurement.description: Mass spectroscopy proteomics, semi-quantitative binding affinity of serum proteins (plaqueproteome, Table 2)
- condition.summary: higher number = stronger affinity
measurement.label: Semi-quantitative analysis of proteins binding to different plaque particles: Synuclein
Write the number on its own, no unit after it.

molecule	measured.result
Alpha-2-HS-glycoprotein (protein) chain 1: APHGPGLIYRQPNCDDPETEEAALVAIDYINQNLPWGYKHTLNQIDEVKVWPQQPSGELFEIEIDTLETTCHVLDPTPVARCSVRQLKEHAVEGDCDFQLLKLDGKFSVVYAKCDSSPDSAEDVRKVCQDCPLLAPLNDTRVVHAAKAALAAFNAQNNGSNFQLEEISRAQLVPLPPSTYVEFTVSGTDCVAKEATEAAKCNLLAEKQYGFCKATLSEKLGGAEVAVTCMVFQTQPVSSQPQPEGANEAVPTPVVDPDAPPSPPLGAPGLPPAGSPPDSHVL chain 2: TVVQPSVGAAAGPVVPPCPGRIRHFKV	10

Alright, here's another molecule for you.
For the molecule Dermcidin (protein) YDPEAASAPGSGNPCHEASAAQKENAGEDPGLARQAPKPRKQRSSLLEKGLDGAKKAVGGLGKLGKDAVEDLESVGKGAVHDVKDVLDSVL , give its reported Semi-quantitative analysis of proteins binding to different plaque particles: Synuclein.
0
